- system-under-test: T1, CD134 expressed on the cell surface of HT1080_OX40 cells (human, UniProt P43489 29-277); also: test concentration or dose not given here
- T1 sequence (looked up): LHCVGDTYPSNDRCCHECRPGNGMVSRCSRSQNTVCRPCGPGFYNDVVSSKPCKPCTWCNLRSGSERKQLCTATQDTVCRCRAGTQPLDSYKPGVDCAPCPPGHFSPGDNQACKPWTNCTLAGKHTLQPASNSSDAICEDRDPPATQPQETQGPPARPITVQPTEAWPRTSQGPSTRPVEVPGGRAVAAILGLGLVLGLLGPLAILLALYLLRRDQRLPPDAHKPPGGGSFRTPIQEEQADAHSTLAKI
- measurement-description: cell-based or functional assay
Functional assay Cross-linked by F(ab′)2 fragment IL-8 under 2 abs. corr. gets MET, anything at or over 2 abs. corr. gets NOT MET.

# binder, category-label
data = [
    ("P018.S.12.A.D04 (antibody, V domains shown, V regions on human Ig constant parts; also called AB134_69) VH: QSVEESGGRLVTPGTPLTLTCTVSGIDLSSYAMGWVRQAPGKGLEYIGIISYDGSTYYASWAKGRFTISKTSTTVDLKITSPTTEDTATYFCARVDYGDYNFALWGQGTLVTVSS VL: DVVMTQTPASVSEVVGGTVTIKCQASESISNYLAWYQQKPGQPPKLLIYAASNLASGVPSRFSGSGSGTQFTLTISDLESADAATYYCQCTYYVSSYFAFSGGTEVVVK", "MET"),
    ("P018.S.11.A.F03 (antibody, V domains shown, V regions on human Ig constant parts; also called AB134_39) VH: QEQLVESGGGLVQPEGSLTLTCKASGFDFNNNAMCWVRQAPGKGLEWIACIYDGSSGSTYYASWAKGRFTISKTSSSTVTLQMTSLTAADTATYFCARAYAAYTVYDYAFNLWGPGTLVTVSS VL: DVVMTQTPASVSEPVGGTVTIKCQASQSIGSDLAWYQQKPGQPPKLLIYYTTNLETGVSSRFKGSGSGTQFTLTISDLESADAATYYCQYADRSSYSFGGGTEVVVK", "MET"),
    ("P018.S.12.A.A02 (antibody, V domains shown, V regions on human Ig constant parts; also called AB134_51) VH: QSLEESGGRLVTPGTPLTLTCTASGFSLSTYYMTWVRQAPGKGLEWIGDIYVRGGARYANWAKGRFTISRTSTTVDLRITSPTTEDTATYFCAREGLSLWGQGTLVTVSS VL: AQVLTQTASPVSAAVGGTVTINCQSSQSVYKNNRLAWYQQKPGQPPKLLIYETSKLESGVSSRFKGSGSGTQFTLTISGVQSDDAATYYCLGGYDCGSADCNAFGGGTEVVVK", "MET"),
    ("P018.S.12.A.E06 (antibody, V domains shown, V regions on human Ig constant parts; also called AB134_77) VH: QSVEESGGRLVTPGTPLTLTCTVSGFSLSNYHMCWVRRAPGKGLEWIGSITTADETTHYANWAKGRFTISETSTTVDLRITSPTTEDTAIYFCGRTIRYDDYAVDLWGPGTLVTVSS VL: DLVMTQTPASMSEPVGGTVTIKCQASESVGGYLAWYQQKAGQRPKLLIYAAGNLASGVPSRFKGSGSGTEYTLTISDLESADAATYYCQCTYFDSSYVGFGGGTEVVVR", "MET"),
    ("P018.S.11.A.B06 (antibody, V domains shown, V regions on human Ig constant parts; also called AB134_27) VH: QSVEESGGRLVTPGTPLTLTCTASGFSLINYNMGWVRQAPGEGLEWIGTILTDGTVYYSNWAKGQFTISKTSTTVDLEMTSPTNEDTATYFCARDYPSYIAFDLWGPGTLVTVSS VL: AQVLTQTASSVSAAVGGTVTINCQASQSVYNDDNLAWLQQKPGQPPKLLIYGASSLASGVPSRFSGSGSGTEFTLTISGVQSEDAAIYYCQGGGFSSGWYWAFGGGTEVVVK", "NOT MET"),
    ("P018.S.02.A.F01 (antibody, V domains shown, V regions on human Ig constant parts; also called AB134_1) VH: QSVEESGGRLVTPGTPLTLTCTVSGFSLSSYAMSWVRQAPGKGLEWIGIISSSGVTYYASWAKGRFTISKTSTTVDLRITGPTTEDTATYFCARDPGYSTGWDYFFRLWGQGTLVTVSS VL: AIKMTQTPASVSAAVGGTVSINCQASEDIESYLAWYQQKPGQPPKLLIYDASDLPSGVPSRFKGSGSGKQFTLTISGVQSDDAATYYCQHGAYTSSSDFFYAFGGGTEVVVK", "NOT MET"),
    ("P018.S.12.A.C02 (antibody, V domains shown, V regions on human Ig constant parts; also called AB134_62) VH: QEQLVESGGGLVQPEGSLTLTCTASGFSFSNNAMCWVRQAPGKGLEWIACIYDGSSGSTYYATWAKGRFTISKTSSTTVTLQMTSLTAADTATYFCARAYGGYTVYDYAFNLWGPGTLVTVSS VL: DVVMTQTPASVSEPVGGTVTIKCQASQSIGSDLAWYQQKPGQPPKLLIYYTTNLETGVSSRFKGSRSGTEYALTISDLESADAATYYCQYGVRSTYSFGGGTEVVVK", "NOT MET"),
    ("P018.S.04.A.B04 (antibody, V domains shown, V regions on human Ig constant parts; also called AB134_6) VH: QSLEESGGRLVTPGTPLTLTCTASGIDLNNYAMSWVRQAPGKGLEWIGIISGAGYTYYTTWAKGRFTISKTSTTVDLKITSPTTEDTATYFCARIYDSYGYAYVPYYDMDLWGPGTLVTVSS VL: AAVLTQTPSPVSTAVGGTVTINCQSSQSVFMNNYLSWYQQKPGQPPKLLIYDASTLASRVPDRFSGSGSGTQFTLTISGVQSDDAAAYYCLGGYDDDSATTFGGGTEVVVE", "NOT MET"),
    ("P018.S.12.A.A01 (antibody, V domains shown, V regions on human Ig constant parts; also called AB134_50) VH: QSVEESGGRLVTPGTPLTLTCTVSGFSLSSYAMIWVRQAPGKGLEYIGYISYDGSTYYASWVKGRFTISKTSTTVDLKMTSLTTEDTATYFCARARIDDGYGNLWGQGTLVTVSS VL: DVVMTQTPASVSEPVGGTVTIKCQASESISNYLAWYQQKPGQPPKLLIYAASYLASGVPSRFRGSGSGTEFTLTISDLESADAATYYCQCTYVASTYVGTFGGGTEVVVK", "NOT MET"),
]

Reference source: patent US20210253725A1
